# credit: paper PMC2717725

Protocol Notes: Equilibrium water solubility
Format: physicochemical
Condition: double distilled water
Recorded Metric: solubility
Remember to quote the unit after the number.

Field solubility (entry CN(CCON=C1C(=C2C(=O)Nc3cc(Br)ccc32)Nc2ccccc21)CC(O)CO.Cl (stereo not shown) ) reads 1450 µg/mL

###

Measurement Target: CDK1/cyclin B
Protocol Notes: CDK1/cyclin B kinase assay
Condition: read-out: CDK1 IC50, 15 μM ATP
Assignment: determine reported IC50 for the given compounds.

Field IC50 (entry O=C1Nc2cc(Br)ccc2/C1=C1/Nc2ccccc2/C1=N\OCCBr ) reads > 10 µM

Field IC50 (entry O=C1Nc2cc(Br)ccc2/C1=C1/Nc2ccccc2/C1=N\OCCO ) reads > 10 µM

Field IC50 (entry CCN(CC)C(=O)O/N=C1/C(=C2/C(=O)Nc3cc(Br)ccc32)Nc2ccccc21 ) reads > 10 µM
